Target: Pancreatic lipase-related protein 2 (Cavia porcellus)
Sequence (whole entry): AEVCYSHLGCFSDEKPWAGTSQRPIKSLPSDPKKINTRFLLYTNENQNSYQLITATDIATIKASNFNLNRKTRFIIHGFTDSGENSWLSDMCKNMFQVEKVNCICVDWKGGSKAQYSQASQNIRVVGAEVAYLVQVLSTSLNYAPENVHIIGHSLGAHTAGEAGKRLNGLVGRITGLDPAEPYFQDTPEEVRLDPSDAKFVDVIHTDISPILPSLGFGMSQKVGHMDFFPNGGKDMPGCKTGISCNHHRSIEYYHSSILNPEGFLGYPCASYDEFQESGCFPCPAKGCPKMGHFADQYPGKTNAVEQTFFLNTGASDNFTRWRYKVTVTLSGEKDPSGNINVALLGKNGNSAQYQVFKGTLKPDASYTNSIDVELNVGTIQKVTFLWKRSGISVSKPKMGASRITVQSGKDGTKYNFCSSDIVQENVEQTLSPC
Assay: Inhibition of recombinant guinea pig PL-RP2 expressed in Aspergillus oryzae at 20:1 molar excess compound concentration preincubated for 30 mins at 25 degreeC relative to control
assayReadout: inhibition

INSERT INTO results (compound, assayreadout, observedmeasurement) VALUES
  ('CCCCCCCCOc1nn(-c2cccc(Oc3ccccc3)c2)c(=O)o1', 'inhibition', '63%'),
  ('CCCCCCCCCCOc1nn(-c2cccc(Oc3ccccc3)c2)c(=O)o1', 'inhibition', '57.4%'),
  ('COCCOc1nn(-c2cccc(Oc3ccccc3)c2)c(=O)o1', 'inhibition', '67.8%'),
  ('CCCCCCCCCCCCOc1nn(-c2cccc(Oc3ccccc3)c2)c(=O)o1', 'inhibition', '54.4%'),
  ('CCCCC(CC)COc1nn(-c2cccc(Oc3ccccc3)c2)c(=O)o1 (stereo not given)', 'inhibition', '54.8%'),
  ('O=c1oc(OCCOCc2ccccc2)nn1-c1cccc(Oc2ccccc2)c1', 'inhibition', '62.1%'),
  ('CCOc1nn(-c2cccc(Oc3ccccc3)c2)c(=O)o1', 'inhibition', '27.7%'),
  ('CCCCCCOc1nn(-c2cccc(Oc3ccccc3)c2)c(=O)o1', 'inhibition', '91.3%'),
  ('CC(C)COc1nn(-c2cccc(Oc3ccccc3)c2)c(=O)o1', 'inhibition', '76%'),
  ('CCCCOc1nn(-c2cccc(Oc3ccccc3)c2)c(=O)o1', 'inhibition', '43.8%');

----------
Listing of entries alongside the reported inhibition.
molecular target: Gastric triacylglycerol lipase (Canis lupus familiaris) (UniProt P80035); experiment: Inhibition of recombinant dog gastric lipase at 4:1 molar excess compound concentration preincubated for 30 mins at 25 degreeC relative to control
Sequence (P80035 whole entry): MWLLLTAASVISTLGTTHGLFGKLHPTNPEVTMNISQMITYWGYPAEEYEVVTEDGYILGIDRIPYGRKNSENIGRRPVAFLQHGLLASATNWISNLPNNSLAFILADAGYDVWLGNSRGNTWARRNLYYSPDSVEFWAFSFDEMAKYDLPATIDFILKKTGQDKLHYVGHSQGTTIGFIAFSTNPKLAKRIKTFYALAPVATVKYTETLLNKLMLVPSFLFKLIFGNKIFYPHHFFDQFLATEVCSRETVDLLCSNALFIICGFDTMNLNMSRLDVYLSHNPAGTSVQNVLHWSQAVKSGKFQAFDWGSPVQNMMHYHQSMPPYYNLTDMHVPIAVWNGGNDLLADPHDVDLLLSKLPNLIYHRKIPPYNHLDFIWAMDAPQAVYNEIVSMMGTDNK
assayReadout: inhibition (%)

INSERT INTO results (compound, readoutunits, observedmeasurement) VALUES
  ('O=c1oc(OCCOCc2ccccc2)nn1-c1cccc(Oc2ccccc2)c1', '%', 87.6),
  ('COCCOc1nn(-c2cccc(Oc3ccccc3)c2)c(=O)o1', '%', 18.1),
  ('CC(C)COc1nn(-c2cccc(Oc3ccccc3)c2)c(=O)o1', '%', 35.2),
  ('CCCCCCCCOc1nn(-c2cccc(Oc3ccccc3)c2)c(=O)o1', '%', 53.9),
  ('CCOc1nn(-c2cccc(Oc3ccccc3)c2)c(=O)o1', '%', 33.6),
  ('CCCCCCOc1nn(-c2cccc(Oc3ccccc3)c2)c(=O)o1', '%', 43.5),
  ('CCCCCCCCCCOc1nn(-c2cccc(Oc3ccccc3)c2)c(=O)o1', '%', 14.6),
  ('CCCCOc1nn(-c2cccc(Oc3ccccc3)c2)c(=O)o1', '%', 41.5),
  ('CCCCC(CC)COc1nn(-c2cccc(Oc3ccccc3)c2)c(=O)o1 (stereo not given)', '%', 21.6),
  ('CCCCCCCCCCCCOc1nn(-c2cccc(Oc3ccccc3)c2)c(=O)o1', '%', 44.1);
